Provenance of the data: patent US20250163186A1

System Under Test: T1, human IgE (human, UniProt P01854 1-428)
T1 construct: written under the same molecule; also called IgE (Abcam ab65866); soluble IgE
T1 sequence (P01854 other isoform, or with tags, fused parts or gaps limits assumed, form in doubt): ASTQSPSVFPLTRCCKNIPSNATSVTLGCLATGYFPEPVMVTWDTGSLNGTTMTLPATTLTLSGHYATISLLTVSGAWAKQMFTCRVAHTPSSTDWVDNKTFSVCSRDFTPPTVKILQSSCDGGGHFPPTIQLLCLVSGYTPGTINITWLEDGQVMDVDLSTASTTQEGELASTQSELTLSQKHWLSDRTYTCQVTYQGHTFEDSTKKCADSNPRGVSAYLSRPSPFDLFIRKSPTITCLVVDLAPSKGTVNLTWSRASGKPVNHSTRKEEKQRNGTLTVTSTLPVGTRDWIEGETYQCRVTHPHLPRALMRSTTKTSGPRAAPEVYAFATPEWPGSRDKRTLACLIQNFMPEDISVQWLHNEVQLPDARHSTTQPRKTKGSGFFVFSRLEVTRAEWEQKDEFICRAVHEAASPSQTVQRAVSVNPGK
Procedure Details: ELISA, clone lysate on IgE-coated plate
Quantity Measured: Confirm OD450 Duplicate1

Binder	Observed Result
39C11 (VHH) VHH: EVQLLESGGGEVQPGGSLRLSCVASGLTFSSYNMGWLRQAPGKEREFVGLSGSSSTSTYYAESVKGRFTISRDNAKNTVYLQMTSLRAEDTAVYYCAARRLLSTYWSMRSWDFWGQGTLVTVEP	0.562
8H11 (VHH, also called hzB10v40 VHH, CDR1 site 8 N to R) VHH: EVQLLESGGGEVQPGGSLRLSCVASGLTFSSYRMGWLRQAPGKEREFVGLSGSSSTSTYYAESVKGRFTISRDNAKNTVYLQMTSLRAEDTAVYYCAARRLLSTYWSDRSWDFWGQGTLVTVEP	0.571
33-2C5 (VHH) VHH: EVQLLESGGGEVQPGGSLRLSCVASGLTFSSYNMGWLRQAPGKEREFVGLSGSSSTSTYYAESVKGRFTISRDNAKNTVYLQMTSLRAEDTAVYYCAARRLHSTYWSDRSWDFWGQGTLVTVEP	0.525
32F11 (VHH) VHH: EVQLLESGGGEVQPGGSLRLSCVASGLTFSSYNMGWLRQAPGKEREFVGLSGSSSTSTYYAESVKGRFTISRDNAKNTVYLQMTSLRAEDTAVYYCAARRRLSTYWSDRSWDFWGQGTLVTVEP	0.557
9D1 (VHH, also called hzB10v40 VHH, CDR1 site 9 M to I) VHH: EVQLLESGGGEVQPGGSLRLSCVASGLTFSSYNIGWLRQAPGKEREFVGLSGSSSTSTYYAESVKGRFTISRDNAKNTVYLQMTSLRAEDTAVYYCAARRLLSTYWSDRSWDFWGQGTLVTVEP	0.435
6C2 (VHH, also called hzB10v40 VHH, CDR1 site 6 S to Q) VHH: EVQLLESGGGEVQPGGSLRLSCVASGLTFSQYNMGWLRQAPGKEREFVGLSGSSSTSTYYAESVKGRFTISRDNAKNTVYLQMTSLRAEDTAVYYCAARRLLSTYWSDRSWDFWGQGTLVTVEP	0.534
39E11 (VHH) VHH: EVQLLESGGGEVQPGGSLRLSCVASGLTFSSYNMGWLRQAPGKEREFVGLSGSSSTSTYYAESVKGRFTISRDNAKNTVYLQMTSLRAEDTAVYYCAARRLLSTYWSHRSWDFWGQGTLVTVEP	0.55
3-1H1 (VHH, also called hzB10v40 VHH, CDR1 site 3 T to I) VHH: EVQLLESGGGEVQPGGSLRLSCVASGLIFSSYNMGWLRQAPGKEREFVGLSGSSSTSTYYAESVKGRFTISRDNAKNTVYLQMTSLRAEDTAVYYCAARRLLSTYWSDRSWDFWGQGTLVTVEP	0.567
